Where these numbers come from: PubChem BioAssay (NCI)

PROTOCOL: NCI Yeast Anticancer Drug Screen. Data for the cln2 rad14 strain (AID 165);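 note: 0% = growth equal to vehicle treated cultures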
ASSAY SETUP: S. cerevisiae cln2 rad14 strain, at 5.0 µM (retest, dose inferred, filed as 0.5)
Method: Growth inhibition of yeast strains with defined genetic alterations is measured as a screen for potential anti-cancer activity. Selected strains with alterations in DNA damage repair or cell cycle control were exposed to compounds and growth inhibition was measured relative to vehicle treated controls. The strain used in this assay is cln2 rad14
About 79,000 compounds went through this panel and 15% of them were active in at least one assay; those are over-represented in the sample as a whole. Active and inactive are the calls of the source. Cut-off read from the data, not from the text of the source: active = growth inhibition above about 70%; inactive = the rest.
I would appreciate it if you answered using one of these outcomes: yes (1) (active), no (0) (inactive)

These recorded examples may help you get a feel for the data.
Which result was noted for this compound in the test: O=C(O)c1c2c(cc3c1CC1(Cc4cc5c(cc4C1=O)CCC5)C3)CCC2 (configuration not stated)
no (0)

Answer briefly: the call reported for CCC(=O)N1c2ccccc2CC1c1c[nH]c2ccccc12 (configuration not stated) in this assay.
no (0)

For `CC1=NC2=NC(CCCC(=O)OCc3ccc(Cl)c(Cl)c3)=NC3=CC=CC(=N1)N32` , what call appears in the results of this test?
no (0)

Per the assay record, what outcome was assigned to O=C(CC(c1ccccc1Cl)C(C(=O)O)c1ccccc1)c1ccccc1 (configuration not stated) ?
no (0)

Fill in: this test's call for CN(C)CC1Cc2ccsc2C1=O (configuration not stated) is ___
no (0)

Answer briefly: the call reported for CNC(Cc1ccccc1)c1ccc(OC)c2ccccc12 (configuration not stated) in this assay.
no (0)

What classification did `COc1ccc(C(=O)C(CN2CCCC2)CN2CCCC2)cc1` end up with in this test?
no (0)

# fetch the recorded call for `CC(=O)[O-].CC(=O)[O-].CC(=O)[O-].CC(=O)[O-].Cn1c(=O)c2[nH]cnc2n(C)c1=O.Cn1c(=O)c2[nH]cnc2n(C)c1=O.[Rh+2].[Rh+2]` here
no (0)

New cases:
# fetch the recorded call for `CCCCCCCCCCCCCCNCc1ccccc1` here
yes (1)

Which outcome did this test record for the compound CCCN(CCC)CC(O)c1cc(-c2ccccc2)nc2c(Cl)cc(Cl)cc12 (configuration not stated) ?
no (0)

Which result was noted for this compound in the test: `CCN(CC)CCNCc1ccccc1`
no (0)

Which outcome was entered for the compound CC(=O)O[C@H]1CC[C@]2(C)C3=CC[C@]4(C)[C@@H](C(C)=O)CC[C@H]4[C@@]34C=C[C@]2(C1)C1C(=O)OC(=O)C14 (some centres not stated) in this test?
no (0)

In this assay, the call recorded for CC1CC(C)C(C)C(CO)C1 (configuration not stated) was what?
no (0)

Which outcome was entered for the compound `CC(=O)ON=C1C=CC(=C(C#N)c2ccccc2)C=C1` in this test?
yes (1)

For `CN(C)CCSc1cc(-c2ccccc2)c2ccccc2n1` , what call appears in the results of this test?
no (0)

// outcome(item) with item = `CCCCN(CCC=C1c2ccccc2Oc2ccccc21)CCCC`
no (0)

Can you look up the reported call for `CCOC(=O)c1c(Cl)c(CC)c(N=[N+]=[N-])n2c1nc1ccccc12` for me?
no (0)

Call for entry `CC(C)(C)c1ccc(OC(=O)Nc2ccc(Cl)cc2[N+](=O)[O-])c(Br)c1` :
no (0)

Status in this test for Nc1ccccc1OCC(O)CN1CCN(Cc2ccccc2)CC1 (configuration not stated) ?
no (0)
